- ASSAY_PROCEDURE: yeast display, Sf9 membrane polyspecificity reagent, FACS + sequencing; frameworks hold sequencing errors
READOUT_TYPE: polyreactivity (PSR sort gate)

Would you please look over these solved cases?
>>> result("QVQLVESGGGLVQAGGSLRLSCAASGSIVGYAMGWYRQAPGKERELVAAISSGGSTNYADSVKGRFTISSDNAKNTVYLQMNSLKPVDTAVYYCAARRRYKSGYWGQGTQVTVSS")
"high polyreactivity"
>>> result("QVQLVESGGGLVQAGGSLRLSCAASGSILYYYAMGWYRQAPGKERELVAAISSGGSTYYADSVKGRFTISRDNAKNTVYLQMNSLKPEDTAVYYCAARRDNPWAKAPRYKMYYWGQGTQVTVSS")
"high polyreactivity"
>>> result("QDQLVESGGGLVQAGGSLRLSCAASGSTFFGNAMGWSRQAPGKERELVAAISRGGGSTYYADSVKGRLTISRDNAKNTVYLQMNCLKPEDTAVYYCNADDPWTGTAVSTPNDSWGQGTQVTVSS")
"low polyreactivity"
>>> result("QVQLVESGGGLVQAGGSLRLSCAASGFTFHNNVMGWYRQAPGKEMELVATISKSGGSTYYADSVKGRFTISRDNAKNTVYLQMNSLKPEDTAVYYCARSYRDYGRYGYWGQGTQVTVSS")
"high polyreactivity"

Now let's try a different one.
Which measured polyreactivity (PSR sort gate) value corresponds to QVQLVESGGGLVQAGCSLRLSCAASGRTFYPYAMGWYRQAPRKERELVAAINWSGTSTYYADSVKGRFTISRDNAKNTVYLQMNSLKTEDTAVYYCAAKQYPVLHYSLTEADMDYWGQGTQVTVSS ?
low polyreactivity

* * *

- ASSAY_PROCEDURE: yeast display, Sf9 membrane polyspecificity reagent, FACS + sequencing; frameworks hold sequencing errors
READOUT_TYPE: polyreactivity (PSR sort gate)

Would you please look over these solved cases?
>>> result("KVQLVESGGGLVQAGGSLRLSCAASGSIFYYYAMGWYRQAPGKERELVAAISERGAYVLRRPVKGRFTISRDNAKNTVYLQMNSLKPEDTAVYYCAVGFNFQGWRYDYWGQGTQVNVSS")
"high polyreactivity"
>>> result("QVQLVESGGGLVQAGGSLRLSSAASGITFYFNAMRWYRQATGKVSEFVAAISFSGGGTYYADSVKGRFTISRDNAKITDYLDMNSLKPADTAVYYCNADYGRGTLRSIYDYWGQGTQVTVTS")
"low polyreactivity"
>>> result("QVQLVESGGGLVQAGGSLRLSCAASGGTFAFYAMGWYRQAPGKERELVAAITSGGRTYYADSVKGRFTISRDNAKNTVYLQMKRLKPEDTAVYYCNADWVDHYYVGYDYWGQGTQVTVSS")
"low polyreactivity"
>>> result("QVQLEESGGGLVQAGGSLRLSCAASGITFVTYAMGWYRQAPGKERELVAAISRSGGRTYYADSVKGRFTISRDNAKNTVYLQMNSLKPEDTAVYYCAAERKNKYDYWGQGTQVTVSS")
"high polyreactivity"
>>> result("QVQLVESGGGLVQAGGSLRLSCAASGSTFWRNALGWYRQAPGKERELVAAITDSGDSTYYADSVKGRFTISRDTAKNTVYLQMHSLKPEDTAVYYCAVDKLSLYGWDEYWGQGTQVTVSS")
"low polyreactivity"

The following sequences each have a reported value; give each one's polyreactivity (PSR sort gate).
1. QVQLVESGGGLVQAGGSLRLSCAASGSTITDYDMGWYRQAPGKERELVAAITSGGSTNYADSVKGRFTISRDNAKNTVYLQMNSLKPEDTAVYYCAAADADRKYDYWGQGTQVTVSS
2. QVQLVESGGGLAQAGGSLRLTCAASGSTFQIYAMGWYRPAPGKERELVAAITSSSSTNYADSVKGRFTISRDNAKNTVYLQMNRLKPEDTAVYYCAADVSWRSNWYDYWGLGTQVTVSS

1. low polyreactivity
2. low polyreactivity

List polyreactivity (PSR sort gate) for every entry below, keeping the order given.
1. QVQLVESGGGLVQAGGSLRLSCPASGSNLYPYAMGSSTQPPATEREMVATISYSVVSTYYAESVKGRFTISRDNAKNTVYLQMNSLKPEDTAVYYCADKSRSSKYVYWGQGTQVSVSS
2. QVQLVESGGGLVQAGGSLRLSCAASGRIFTLYTMGWYRQAPGKERELVAAISSSGGRTYYADSVKGRFTISRDNAKNTVYLQMNSLKPEDTAVYYCNAGYWYYGQDDYWGQGTQVTVSS
3. QVQLVESGGGLVQAGGSLRLSCAPSGIISIFNVMGWYRQAPGKERELVASITGRGGSTFYADSVKGRFTISRDNAKNTVYLQMNSLKPEDTAVYYCATDTGYTYPVTGLYDYWGQGTQVTVSS
4. QVQLVESGGRVVQAGGILRLRCAGSGSILVHYAMGWYRQAPGKDRELVAAISRGGSTNYADSVKGRFTISRDNAKNTVYLQMNSLKPEDTAVYYCDARRPWGEYYWGQGTQVTVSS
5. QVQLVESRGGLVQAGGSLRLSCAATGSIFNNYDMGWYRQAPGKERELVADISRGGDTNYADSVKGRFTISRDNAKYTVYLQMTSLNPVDTAVYYCNATYWILDSPWRRETFDYWRQGTQVTVSS

["high polyreactivity", "high polyreactivity", "low polyreactivity", "low polyreactivity", "low polyreactivity"]

Parameters: items (list). Returns: polyreactivity (PSR sort gate) for each item.
1. QVQLVESGGGLVQAGGSLRLICAASGRIFEKYAMGWYRQEPGKERELVAAISSSGGSTYYADSVKGRFTISRDIAKNTVYLQMNSLKPDDTAVYYCAKLVVVPFYYWGQGTQVSVSS
2. QVQLVESGGGLVQAGGSLRLSCAASGSIFYTNAMGWYRQAPGKERELVAAISISGSTYYADSVKGRFTISRDNAKNTVYLQMNSLKPEDTAVYYCAAGPGYVRYPRSGVWYVTLYDYWGQGTQVTVSS
3. QVQLEESGGGLVQAGGRLRLSCAASGSIFGFYAMGWYRQAPGKERELVASITISGGSTYYADSVKGRFTISRDNAKNTVYLQMNSLKPEDTAVYYGAARRYWDYNYWGQGTQVTVSS
4. QVQLVESGGGLVQAGGSLRLSCPASGFTFYYYAMGWYRQAPGKERELVAAISYSGGSTYYADSVKGRFTISRDNAKNTVYLQMNRLKPEDTAVYYCAADLSTYRRGFDYWGQGTQVTVSS
5. QVQLVESGGGLVQAGGSLRLSCAASGRIFLVNAMGWYRQAPGKEREFVAAITDNPGSTYYADSVKGRFTISRDNAKNTVYLQMNSLKPEDTAVYYCAKQRGNKRIGYDSWGQGTQVTVSS
6. QVQLVESGGGLVQAGGSLRLSCAASGRTFRTYTMGWYRPAPGKERELVAAISKRGSSTYYADSVKGRFTISRDNAKNTVYLQMNSLKQEDTAVYYCAARSWLSNSPYGYWGQGTQVTVSS
7. QDQLVESGGGLVQAGGSLRLSCAASAFTLSPNSMGWDRQAPGKEREFVAAISQRGGSTYYADSVKGRFTISRDNAKNTVYLQMNSLKPEDSAVYYCARDTKYKYDYWGQGTQVTVSS

1. high polyreactivity
2. high polyreactivity
3. low polyreactivity
4. high polyreactivity
5. low polyreactivity
6. high polyreactivity
7. low polyreactivity

Hey, can you go through the list below and give me polyreactivity (PSR sort gate) for every item?
1. QVQLVESGGRLVQAGGILRLSCAASGRIFNRYAMGWSRQAPGKEREFVARITGSGGRTYYADSVKGRFTISRDNAKNTVYLQMNSLKPEDTAVYYCARDRGYQSGYDFWGQGSQVTVSS
2. QVQLGESGGGLVQAGGSLRLSCAASGRIVRFYAMGWYRQAPGKERELVATISRSGGSTYYADSVKGRFTISRDNAKNTVNIQMNSLKPEDTAVYYCARLVGSRYGHWGQGTQVTVSS

high polyreactivity
high polyreactivity

* * *

- ASSAY_PROCEDURE: yeast display, Sf9 membrane polyspecificity reagent, FACS + sequencing; frameworks hold sequencing errors
READOUT_TYPE: polyreactivity (PSR sort gate)

>>> result("QVQLVESGGGLVQAGGSLRLSCAASGFTFFVYAMGWYRQAPGKERELVAVITSGGTTNYADSVKGRFTISRDNAKNTVYLQMNSLKPEDTAVYYCNARGEKRGYYYWGQGTQVTVSS")
"high polyreactivity"
>>> result("QVQLVESGGGLVQAGGSLRLSCAASGRNFIYNAMGWYRQAPGKERELVAAISRSGGSTNYADSVKGRFTISRDNAKNTVYLQMNSLKPEDTAVYYCAVDSGRYYYYLGFSTRYYWGQGTQVTVSS")
"high polyreactivity"

* * *

- ASSAY_PROCEDURE: yeast display, Sf9 membrane polyspecificity reagent, FACS + sequencing; frameworks hold sequencing errors
READOUT_TYPE: polyreactivity (PSR sort gate)

>>> result("QVQLVESGGGLVQAGGSLRLSCAASGIYINAMGWYRQAPGKERELVAAISRGGSTYYADSVKGRFTISRDNAKNTVYLQMNSLKPEDTAVYYCAKLIGRWRLYHTFVKGDYWGQGTQVTVSS")
"high polyreactivity"
>>> result("QVQLVESGGGLVQAGGSLRLSCAASGRIFKYNAMGWYRQAPGKERELVAAISGGGSTNYADSVKGRFTISRDNAKNTVYLQMNSLKPEDTAVYYCAKGYRRVYGPFYYWGQGTQVTVSS")
"low polyreactivity"
>>> result("QVQLVESGGGLVQAGGSLRLSCAASGSIFDYYTMGWYRQAPGKERELVASITQSGGSTYYADSVKGRFTISRDNAKNTVYLQMNSLKPEDTAVYYCAADFSIVKMDYWGQGTQVTVSS")
"low polyreactivity"
>>> result("QVQLVESGGGLVQAGGSLRLSCAASGITGHNAMGWYIQAPGKERELVARISSGGRTNYADSVKGRFTISRDNAKNTVYLQMNSLKPEDTAVYYCAAGFRVGSFLRYNYWGQGTQVTVSS")
"high polyreactivity"
>>> result("QVQIGESGGGLVQAGGSLRLSCAASGSTFWRYAMGWDRPATGKECELVASITGGGGSTYYADSVKGRFTISRDNAKNTVDLQMHRLKPEDNAVYSCNARRYYRVDSYDYWGQGTQVTVSS")
"high polyreactivity"
>>> result("QVQLVESGGGLVQAGGSLRLSCAASGSIFDWYAMGWYRQAPGKERELGAAITNSGGRTYYADSVKGRFTISRDTAKNTVYLQMNSLKPEDTAVYYCNASVFRLRKMYYWGQGTPVTVSS")
"high polyreactivity"
>>> result("QVQLVESGGGLVQAGGSLRLSCAASGSTFIDYAMGWYRQAPGKERELVAAITNGGNTKYADSVKGRFTISRDNAKNTVYLQMNSLKPEDTAVYYCAREPSIFTPSYDYWGQGTQVNVSS")
"low polyreactivity"
>>> result("QVQLVESGGGLVQAGGSLRLSCAASGRTFFHYAMGWYRQAPGKERELVAAISYRGTSTYYADSVKGRFTISRDNAKNTVYLQMISLKPEDTAVYYCNAYSTRCGWSYRGDSWGQGTQVTVSS")
"high polyreactivity"

Quick batch: polyreactivity (PSR sort gate) for everything below.
1. QVQLVESGGGLVQAGGSLRLSCAASGRTFTRYAMGWYRQAPGKERELVAAISWSGGSTYYADSVKGRFTISRDNAKNTVYLQMNSLKPEDTAVYYCNAYYYYPEFNYWGLGTQVTVSS
2. QVQLVESGGGLVQAGGSLRLSCAASGIIFDDYAMGWYRQAPGKERELVAAITDSGGSTYYADSVKGRFTISRDNAKNTVYLQMNSLKPEVTAVYYCAARTQRRVNRVGYRSNYYYWGQGTQVTVSS
3. QVQLVESGGGLVQAGGSLRLSCAASGIIFDDYAMGWYRQAPGKERELVAAIRSGVSTNYADSVKGRFTISRDNAKNTVYLQMNSLKPEDTAVYYGAARNTAPYFTEYDYWGQGTQVTVSS

["high polyreactivity", "low polyreactivity", "low polyreactivity"]

For every item below, please supply its polyreactivity (PSR sort gate).
1. QVQLVESGGGLVQAGGSLRLSCAASGLTFADYAMGWYRKAPGKERELVAAISRRGGSTYYADSVKGRFTISRDNAKNTVYLQMNSLKPEDTAVYYCNAAYVYGDQARGGYWGQGTQVTVSS
2. QVQLVESGGGLVQAGGSLRLSCAASGGTFQQHAMGWYRKAPGTERELVAAISRSGGNTYYADSVKGRFTISRDNSKNTVYFQMNSLKPEDTAVYSCAVVSSSQYSRYTSQWKEYYWGKGTQVTVSS
3. QVQLVESGGGLVQAGGSLRLSCAASGRTFNTYDMGWYRQAPGKERELVAAITSRGGTTYYADSVKGRFTITRDNAKNTVYLQMNSLKPEDTAVSYCAADYYSWDYQYDYDYWGQGTQVTVSS
4. QVQLVESGGGLVQAGGSLRLSCAASGFIFEYYAMGWYRQAPGKERELVAAISSSGGSTYYADSVKGRFTISRDNAKNTVYLQMNSLKPEDTAVYYCAKDYAPSATKLHYWGQGTQVTVSS
5. QVQLVESGGGLVQAGGSLRLSCAASGSTLYAYAMGWYRQAPGKERELVAAIRTGGSTYYADSVKGRFTISRDNAKNTVYLQMNSLKPEDTAVYYCAADHGYQYGYWGQGTQVTVSS
6. QVQLVESGGGLVQAGGSLRLRCAASGSIFRRYAMGRYRQAPGKERELVATITSTDSTNYADSVKGRFTISRDNAKNTVYLQMNSLKPEDTAVYYCAKRPYDYRLNSEYYYWGQGTQVTVSS

1. high polyreactivity
2. low polyreactivity
3. low polyreactivity
4. low polyreactivity
5. low polyreactivity
6. low polyreactivity

Here are 4 sequences. What values of polyreactivity (PSR sort gate) were reported for them?
1. QVQLVESGGGLVQAGGSLRLSCAASGRIFRYNAMGWYRQAPGKEREFVAAITSSGAGTHYADSVKGRFTISRDNAKNTVYLQMNSLKPEDTAVYYCNARGYYSKNSYDYYTGDYWGQGTQVTVSS
2. QVQLVESGGGLVQAGGSLRLSCAASGLTFANYAMGWYRQAPGKERELVAAISTWSGGSTYYADSVKGRFTISRDNAKNTVYLQMNSLKPEDTAVYYCAARRYSRGRLPYDYGGQGTQVTVSS
3. QVQLVESGGGLVQAGGSLRLSCAASRRILRVYAMGWYRQAPGKERELVASISSGGSTNYADSVKGRFTISRDNAKNTVYFQMKSLKPEDTAVYYCNRRWVHTYDYWGQGTQVTVSS
4. QVQLVESGGGLVHAGGSLRLSCASSGIIFDYYAMAWYRQAPGKERELVASITGTTGSTYYADSVKGRFTISRDNAKINVYLQMNSLKPEDTAVYYCNVDTPYGGLVTMDYWGQGTQVTVSS

high polyreactivity
high polyreactivity
high polyreactivity
low polyreactivity

All figures here come from the nanobody polyreactivity screen of Harvey et al. (2022).
